Origin of the recorded values: patent US10941136B2

- TARGET OF ASSAY: PI3Kδ (p110δ/p85α)(h) (Homo sapiens, UniProt O00329)
- Sequence (O00329 whole entry, one chain of several): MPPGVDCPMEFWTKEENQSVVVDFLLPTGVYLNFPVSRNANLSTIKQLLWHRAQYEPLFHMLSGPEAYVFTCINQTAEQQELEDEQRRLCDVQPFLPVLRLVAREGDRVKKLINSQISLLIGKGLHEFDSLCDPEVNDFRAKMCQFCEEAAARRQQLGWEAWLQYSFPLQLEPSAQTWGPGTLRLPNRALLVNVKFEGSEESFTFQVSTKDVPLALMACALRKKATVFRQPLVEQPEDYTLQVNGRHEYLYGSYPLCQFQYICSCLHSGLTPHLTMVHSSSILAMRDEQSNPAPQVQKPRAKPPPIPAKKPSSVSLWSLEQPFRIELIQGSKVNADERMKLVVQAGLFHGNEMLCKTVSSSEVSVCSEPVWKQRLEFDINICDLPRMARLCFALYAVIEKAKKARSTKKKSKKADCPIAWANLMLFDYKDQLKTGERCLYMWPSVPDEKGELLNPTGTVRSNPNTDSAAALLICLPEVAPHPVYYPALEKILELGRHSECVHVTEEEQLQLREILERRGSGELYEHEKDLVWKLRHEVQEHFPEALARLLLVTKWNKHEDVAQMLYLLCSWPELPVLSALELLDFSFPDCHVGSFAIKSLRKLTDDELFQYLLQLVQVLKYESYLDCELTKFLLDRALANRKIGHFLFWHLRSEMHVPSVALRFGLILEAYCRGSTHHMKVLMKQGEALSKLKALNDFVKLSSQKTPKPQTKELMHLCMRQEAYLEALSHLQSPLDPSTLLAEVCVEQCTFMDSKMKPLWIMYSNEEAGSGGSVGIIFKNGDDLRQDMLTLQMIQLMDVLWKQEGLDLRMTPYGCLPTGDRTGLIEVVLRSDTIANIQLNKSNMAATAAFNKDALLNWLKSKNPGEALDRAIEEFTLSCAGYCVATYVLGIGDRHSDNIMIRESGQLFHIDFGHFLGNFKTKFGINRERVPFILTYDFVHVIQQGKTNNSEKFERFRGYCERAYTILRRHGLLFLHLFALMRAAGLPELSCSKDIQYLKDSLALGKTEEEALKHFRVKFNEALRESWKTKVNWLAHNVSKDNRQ
- PROTOCOL TEXT: PI3K-HTRF in vitro enzyme assay, PI3Kδ
- MEASUREMENT CONDITIONS: enzyme 0.1 μg/ml
MEASURE NAME: pIC50
Scale: negative log10 of molar concentration, which is what pIC50 denotes.

Task item: Return reported pIC50. Input compound: CC(C)[C@H](Nc1ncnc2cccc(F)c12)c1cc2cccc(-c3cncnc3)c2c(=O)n1-c1ccccc1 [Example 45]
Reply: 7.77

Task item: Return reported pIC50. Input compound: C[C@H](Nc1ncnc2cccc(F)c12)c1nc2cccc(-c3cnc(N)nc3)c2c(=O)n1-c1ccccc1 [Example 23]
Reply: 7.72

Task item: Return reported pIC50. Input compound: CC(C)[C@H](Nc1ncnc2cccc(F)c12)c1nc2cccc(-c3cnc(N)nc3)c2c(=O)n1-c1ccccc1 [Example 29]
Reply: 7.89

Task item: Return reported pIC50. Input compound: CC[C@H](Nc1ncnc2cccc(F)c12)c1nc2cccc(-c3cnc(N)nc3)c2c(=O)n1-c1ccccc1 [Example 25]
Reply: 8.00

Task item: Return reported pIC50. Input compound: C[C@H](Nc1ncnc2ccc(C#N)cc12)c1nc2cccc(-c3cnc(N)nc3)c2c(=O)n1-c1ccccc1 [Example 2]
Reply: 8.40

----------
- TARGET OF ASSAY: PI3Kδ (p110δ/p85α)(h) (Homo sapiens, UniProt O00329)
- PROTOCOL TEXT: PI3K-HTRF in vitro enzyme assay, PI3Kδ
- MEASUREMENT CONDITIONS: enzyme 0.1 μg/ml
MEASURE NAME: IC50 (nM)
// note: answer is a bare numeric in nM

Task item: Return reported IC50. Input compound: `CC[C@H](Nc1ncnc2ccc(C#N)cc12)c1nc2cccc(-c3cnc(N)nc3)c2c(=O)n1C1CC1`
Reply: 13

Task item: Return reported IC50. Input compound: `Nc1ncc(-c2cccc3nc([C@@H](Nc4ncnc5cccc(F)c45)C4CC4)n(-c4ccccc4)c(=O)c23)cn1`
Reply: 3

Task item: Return reported IC50. Input compound: `CCOc1ncc(-c2cccc3cc([C@H](C)Nc4ncnc5ccc(C#N)cc45)n(-c4ccccc4)c(=O)c23)cn1`
Reply: 17

---
Task item: Return reported IC50. Input compound: `Cc1ncc(-c2cccc3cc([C@@H](Nc4ncnc5cccc(F)c45)C(C)C)n(-c4ccccc4)c(=O)c23)cn1`
Reply: 23

Task item: Return reported IC50. Input compound: `CC(C)[C@H](Nc1ncnc2cccc(F)c12)c1cc2cccc(-c3cnc(N)nc3)c2c(=O)n1-c1ccccc1`
Reply: 12

Task item: Return reported IC50. Input compound: `CC[C@H](Nc1ncnc2ccc(C#N)cc12)c1nc2cccc(-c3cnc(SC)nc3)c2c(=O)n1-c1ccccc1`
Reply: 18

Task item: Return reported IC50. Input compound: `CC[C@H](Nc1ncnc2ccc(C#N)cc12)c1nc2cccc(-c3cnc(OC)nc3)c2c(=O)n1-c1ccccc1`
Reply: 14

----------
Documented IC50 across a set of compounds
- TARGET OF ASSAY: PI3Kα (p110α/p85α)(h) (Homo sapiens, UniProt P42336)
- Sequence (P42336 whole entry): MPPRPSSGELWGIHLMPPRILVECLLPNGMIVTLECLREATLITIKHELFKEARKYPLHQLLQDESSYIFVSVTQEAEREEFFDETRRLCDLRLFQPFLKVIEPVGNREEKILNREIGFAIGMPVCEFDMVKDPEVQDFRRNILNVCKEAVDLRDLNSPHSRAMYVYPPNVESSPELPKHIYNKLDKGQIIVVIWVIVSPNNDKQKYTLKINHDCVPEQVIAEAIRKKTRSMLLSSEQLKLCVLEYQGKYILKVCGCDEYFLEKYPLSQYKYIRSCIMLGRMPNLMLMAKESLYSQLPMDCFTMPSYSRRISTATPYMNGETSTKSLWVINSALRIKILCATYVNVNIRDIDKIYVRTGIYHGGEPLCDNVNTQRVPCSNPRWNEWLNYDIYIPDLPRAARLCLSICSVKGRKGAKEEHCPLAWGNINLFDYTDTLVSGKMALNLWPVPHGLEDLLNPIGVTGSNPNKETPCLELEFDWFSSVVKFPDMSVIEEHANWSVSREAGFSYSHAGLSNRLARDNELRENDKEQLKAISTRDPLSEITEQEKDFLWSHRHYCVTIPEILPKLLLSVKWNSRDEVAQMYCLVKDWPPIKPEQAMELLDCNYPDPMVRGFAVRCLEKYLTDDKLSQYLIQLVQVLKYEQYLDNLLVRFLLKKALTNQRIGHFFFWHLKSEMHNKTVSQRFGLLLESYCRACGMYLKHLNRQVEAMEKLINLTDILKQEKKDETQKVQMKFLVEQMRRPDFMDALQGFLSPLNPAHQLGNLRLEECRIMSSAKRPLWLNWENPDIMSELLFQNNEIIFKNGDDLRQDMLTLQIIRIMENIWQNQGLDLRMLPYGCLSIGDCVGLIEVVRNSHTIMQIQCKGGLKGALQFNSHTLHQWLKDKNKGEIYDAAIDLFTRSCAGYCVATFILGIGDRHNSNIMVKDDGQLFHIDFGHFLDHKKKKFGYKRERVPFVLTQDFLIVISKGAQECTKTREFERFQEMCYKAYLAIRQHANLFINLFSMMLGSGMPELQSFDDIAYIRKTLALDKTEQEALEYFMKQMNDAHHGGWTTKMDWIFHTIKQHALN
- Sequence (P27986 whole entry partner): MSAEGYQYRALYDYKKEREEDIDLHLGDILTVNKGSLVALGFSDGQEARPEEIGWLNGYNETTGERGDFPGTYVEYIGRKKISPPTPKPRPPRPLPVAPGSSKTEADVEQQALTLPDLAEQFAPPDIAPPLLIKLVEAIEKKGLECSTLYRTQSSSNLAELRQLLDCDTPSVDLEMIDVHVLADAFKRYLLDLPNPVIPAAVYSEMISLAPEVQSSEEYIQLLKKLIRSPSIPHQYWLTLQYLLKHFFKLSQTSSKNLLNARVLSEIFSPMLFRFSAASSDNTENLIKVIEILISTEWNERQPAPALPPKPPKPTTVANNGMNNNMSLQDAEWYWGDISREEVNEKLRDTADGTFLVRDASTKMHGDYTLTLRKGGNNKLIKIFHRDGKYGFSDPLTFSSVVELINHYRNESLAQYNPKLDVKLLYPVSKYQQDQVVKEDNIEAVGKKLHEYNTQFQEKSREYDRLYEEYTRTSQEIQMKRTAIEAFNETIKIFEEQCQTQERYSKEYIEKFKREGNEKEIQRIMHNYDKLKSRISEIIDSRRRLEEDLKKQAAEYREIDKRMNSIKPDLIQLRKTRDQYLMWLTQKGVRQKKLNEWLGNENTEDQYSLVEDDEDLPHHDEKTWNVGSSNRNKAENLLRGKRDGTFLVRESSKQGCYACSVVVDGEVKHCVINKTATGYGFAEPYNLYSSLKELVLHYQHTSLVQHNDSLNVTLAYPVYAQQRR
- PROTOCOL TEXT: PI3K-HTRF in vitro enzyme assay, PI3Kα
- MEASUREMENT CONDITIONS: enzyme 0.1 μg/ml
// note: answer is a bare numeric in nM

Solved cases (2 shown):
Task item: Write IC50 of `CCC[C@H](Nc1ncnc2ccc(C#N)cc12)c1nc2cccc(-c3cnc(OC)nc3)c2c(=O)n1-c1ccccc1` ; system used: PI3Kα (p110α/p85α)(h) (Homo sapiens, UniProt P42336)
Reply: 3420

Task item: Write IC50 of `CC[C@H](Nc1ncnc2ccc(C#N)cc12)c1nc2cccc(-c3cnc(N(C)C)nc3)c2c(=O)n1-c1ccccc1` ; system used: PI3Kα (p110α/p85α)(h) (Homo sapiens, UniProt P42336)
Reply: 638

---
Task item: Write IC50 of `CC[C@H](Nc1ncnc2cccc(F)c12)c1nc2cccc(-c3cnc(C)nc3)c2c(=O)n1-c1ccccc1` ; system used: PI3Kα (p110α/p85α)(h) (Homo sapiens, UniProt P42336)
Reply: 7260

Task item: Write IC50 of `C[C@H](Nc1ncnc2ccc(C#N)cc12)c1cc2cccc(-c3cnc(N(C)C)nc3)c2c(=O)n1-c1ccccc1` ; system used: PI3Kα (p110α/p85α)(h) (Homo sapiens, UniProt P42336)
Reply: 673

Task item: Write IC50 of `CC(C)[C@H](Nc1ncnc2cccc(F)c12)c1nc2cccc(-c3cnc(N)nc3)c2c(=O)n1-c1ccccc1` ; system used: PI3Kα (p110α/p85α)(h) (Homo sapiens, UniProt P42336)
Reply: 2010

Task item: Write IC50 of `C[C@H](Nc1ncnc2cccc(F)c12)c1nc2cccc(-c3cnc(N)nc3)c2c(=O)n1-c1ccccc1` ; system used: PI3Kα (p110α/p85α)(h) (Homo sapiens, UniProt P42336)
Reply: 2730

Task item: Write IC50 of `COc1ncc(-c2cccc3nc([C@@H](Nc4ncnc5ccc(C#N)cc45)C4CC4)n(-c4ccccc4)c(=O)c23)cn1` ; system used: PI3Kα (p110α/p85α)(h) (Homo sapiens, UniProt P42336)
Reply: 751

Task item: Write IC50 of `CC[C@H](Nc1ncnc2ccc(C#N)cc12)c1cc2cccc(-c3cncnc3)c2c(=O)n1-c1ccccc1` ; system used: PI3Kα (p110α/p85α)(h) (Homo sapiens, UniProt P42336)
Reply: 712

Task item: Write IC50 of `CCOc1ncc(-c2cccc3cc([C@H](C)Nc4ncnc5ccc(C#N)cc45)n(-c4ccccc4)c(=O)c23)cn1` ; system used: PI3Kα (p110α/p85α)(h) (Homo sapiens, UniProt P42336)
Reply: 1350

Task item: Write IC50 of `Cc1ncc(-c2cccc3cc([C@H](C)Nc4ncnc5ccc(C#N)cc45)n(-c4ccccc4)c(=O)c23)cn1` ; system used: PI3Kα (p110α/p85α)(h) (Homo sapiens, UniProt P42336)
Reply: 730

Task item: Write IC50 of `Cc1ncc(-c2cccc3cc([C@H](C)Nc4ncnc5ccc(C#N)cc45)n(-c4ccc(F)cc4)c(=O)c23)cn1` ; system used: PI3Kα (p110α/p85α)(h) (Homo sapiens, UniProt P42336)
Reply: 635

Task item: Write IC50 of `COc1ncc(-c2cccc3nc([C@H](C)Nc4ncnc5ccc(C#N)cc45)n(C4CC4)c(=O)c23)cn1` ; system used: PI3Kα (p110α/p85α)(h) (Homo sapiens, UniProt P42336)
Reply: 2710

Task item: Write IC50 of `CCOc1ncc(-c2cccc3cc([C@H](CC)Nc4ncnc5ccc(C#N)cc45)n(-c4ccccc4)c(=O)c23)cn1` ; system used: PI3Kα (p110α/p85α)(h) (Homo sapiens, UniProt P42336)
Reply: 909

Task item: Write IC50 of `CC[C@H](Nc1ncnc2ccc(C#N)cc12)c1cc2cccc(-c3cnc(C)nc3)c2c(=O)n1-c1ccccc1` ; system used: PI3Kα (p110α/p85α)(h) (Homo sapiens, UniProt P42336)
Reply: 1630

----------
Documented pIC50 across a set of molecules
- TARGET OF ASSAY: PI3Kα (p110α/p85α)(h) (Homo sapiens, UniProt P42336)
- PROTOCOL TEXT: PI3K-HTRF in vitro enzyme assay, PI3Kα
- MEASUREMENT CONDITIONS: enzyme 0.1 μg/ml
Scale: negative log10 of molar concentration, which is what pIC50 denotes.

Solved cases (3 shown):
Task item: Return reported pIC50. Input molecule: `CC[C@H](Nc1ncnc2cccc(F)c12)c1nc2cccc(-c3cncnc3)c2c(=O)n1-c1ccccc1`
Reply: 5.09

Task item: Return reported pIC50. Input molecule: `CC[C@H](Nc1ncnc2ccc(C#N)cc12)c1nc2cccc(-c3cncnc3)c2c(=O)n1C1CC1`
Reply: 5.61

Task item: Return reported pIC50. Input molecule: `CCOc1ncc(-c2cccc3nc([C@H](CC)Nc4ncnc5ccc(C#N)cc45)n(-c4ccccc4)c(=O)c23)cn1`
Reply: 5.82

---
Task item: Return reported pIC50. Input molecule: `CC[C@H](Nc1ncnc2ccc(C#N)cc12)c1nc2cccc(-c3cnc(N)nc3)c2c(=O)n1C1CC1`
Reply: 6.19

Task item: Return reported pIC50. Input molecule: `CCOc1ncc(-c2cccc3nc([C@H](C)Nc4ncnc5ccc(C#N)cc45)n(C4CC4)c(=O)c23)cn1`
Reply: 5.69

Task item: Return reported pIC50. Input molecule: `C[C@H](Nc1ncnc2ccc(C#N)cc12)c1nc2cccc(-c3cncnc3)c2c(=O)n1C1CC1`
Reply: 5.58

Task item: Return reported pIC50. Input molecule: `CC[C@H](Nc1ncnc2ccc(C#N)cc12)c1nc2cccc(-c3cncnc3)c2c(=O)n1-c1ccccc1`
Reply: 5.66

Task item: Return reported pIC50. Input molecule: `CC(C)[C@H](Nc1ncnc2cccc(F)c12)c1cc2cccc(-c3cnc(N)nc3)c2c(=O)n1-c1ccccc1`
Reply: 5.53

Task item: Return reported pIC50. Input molecule: `CC[C@H](Nc1ncnc2cccc(F)c12)c1nc2cccc(-c3cnc(N)nc3)c2c(=O)n1-c1ccccc1`
Reply: 5.84

Task item: Return reported pIC50. Input molecule: `CCC[C@H](Nc1ncnc2ccc(C#N)cc12)c1nc2cccc(-c3cnc(N)nc3)c2c(=O)n1-c1ccccc1`
Reply: 6.21
